# System: Human immunodeficiency virus 1
# protocol_notes: Antiviral activity against HIV1 3B infected in human CEM cells assessed as inhibition of virus-induced cytopathicity after 4 days
# Type: functional, organism-based
# run_conditions: Human immunodeficiency virus 1, 3B, CCRF-CEM, 96 h
Recorded measurements of EC50, one per entry

{"smiles_record": "CN[C@@H]1[C@H](O[C@@H]2OC[C@@H](O)[C@H](O)[C@H]2O)[C@@H](O)[C@H](O[C@H]2c3cc(C)c(C(=O)N[C@H](C)C(=O)O)c(O)c3-c3c(cc4c(c3O)C(=O)c3cc(OC)cc(O)c3C4=O)[C@@H]2O)O[C@@H]1C", "EC50 / µM": 5.2}
{"smiles_record": "CCc1c(CNc2nc(N[C@@H](CC(=O)O)C(=O)O)nc(N[C@@H](Cc3c[nH]c4ccccc34)C(=O)O)n2)c(CC)c(CNc2nc(N[C@@H](CC(=O)O)C(=O)O)nc(N[C@@H](Cc3c[nH]c4ccccc34)C(=O)O)n2)c(CC)c1CNc1nc(N[C@@H](CC(=O)O)C(=O)O)nc(N[C@@H](Cc2c[nH]c3ccccc23)C(=O)O)n1", "EC50 / µM": 18}
{"smiles_record": "CCc1c(CNc2nc(N[C@@H](Cc3ccc(O)cc3)C(=O)O)nc(N[C@@H](Cc3c[nH]c4ccccc34)C(=O)O)n2)c(CC)c(CNc2nc(N[C@@H](Cc3ccc(O)cc3)C(=O)O)nc(N[C@@H](Cc3c[nH]c4ccccc34)C(=O)O)n2)c(CC)c1CNc1nc(N[C@@H](Cc2ccc(O)cc2)C(=O)O)nc(N[C@@H](Cc2c[nH]c3ccccc23)C(=O)O)n1", "EC50 / µM": 26}
{"smiles_record": "O=C(O)[C@H](Cc1ccccc1)Nc1nc(NCCN(CCNc2nc(N[C@@H](Cc3ccccc3)C(=O)O)nc(N[C@H](Cc3ccccc3)C(=O)O)n2)CCNc2nc(N[C@@H](Cc3ccccc3)C(=O)O)nc(N[C@H](Cc3ccccc3)C(=O)O)n2)nc(N[C@H](Cc2ccccc2)C(=O)O)n1", "EC50 / µM": 65}
{"smiles_record": "CCc1c(CNc2nc(N[C@@H](Cc3c[nH]c4ccccc34)C(=O)O)nc(N[C@H](Cc3c[nH]c4ccccc34)C(=O)O)n2)c(CC)c(CNc2nc(N[C@@H](Cc3c[nH]c4ccccc34)C(=O)O)nc(N[C@H](Cc3c[nH]c4ccccc34)C(=O)O)n2)c(CC)c1CNc1nc(N[C@@H](Cc2c[nH]c3ccccc23)C(=O)O)nc(N[C@H](Cc2c[nH]c3ccccc23)C(=O)O)n1", "EC50 / µM": 19}
{"smiles_record": "O=C(O)[C@H](Cc1c[nH]c2ccccc12)Nc1nc(NCCOCCOCCNc2nc(N[C@@H](Cc3c[nH]c4ccccc34)C(=O)O)nc(N[C@H](Cc3c[nH]c4ccccc34)C(=O)O)n2)nc(N[C@@H](Cc2c[nH]c3ccccc23)C(=O)O)n1", "EC50 / µM": 112}
{"smiles_record": "O=C(O)[C@H](Cc1ccccc1)Nc1nc(N[C@@H](Cc2ccccc2)C(=O)O)nc(N2CCN(c3nc(N[C@@H](Cc4ccccc4)C(=O)O)nc(N[C@@H](Cc4ccccc4)C(=O)O)n3)CC2)n1", "EC50 / µM": 106}
